For each of the binders below, state its pEC50.
experimentalSystem: Human CD16B^H140Y fused to IgG Fc (human) (UniProt O75015)
Sequence (O75015 other isoform, or with tags, fused parts or gaps H140Y H140Y limits assumed): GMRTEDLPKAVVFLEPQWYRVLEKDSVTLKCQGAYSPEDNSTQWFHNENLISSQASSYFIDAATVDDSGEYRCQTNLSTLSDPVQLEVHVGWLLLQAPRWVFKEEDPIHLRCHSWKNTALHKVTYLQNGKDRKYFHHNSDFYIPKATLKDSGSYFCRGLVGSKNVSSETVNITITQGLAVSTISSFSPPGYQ
assayProcedure: ELISA, coated antigen-IgG Fc
# pEC50 is unitless: minus log10 of the molar concentration; print number only

pEC50 reported for this binder scFv CD16A (CD16-5) (scFv) scFv: QVQLVQSGAEVKKPGESLKVSCKASGYTFSSYYMHWVRQAPGQGLEWMGAIEPRGVRISYAQKFQGRVTMTRDTSTSTVYMELSSLRSEDTAVYYCARGSAYYYDFADYWGQGTLVTVSSGGSGGSGGSGGSGGSGGSSYVLTQPSSVSVAPGQTARITCGGHNIGSTNVHWYQQKPGQAPVLVIYQDSKRPSGIPERFSGSNSGNTATLTISGTQAMDEADYYCQVWDNYSVQFGGGTKLTVLAAAGSHHHHHH : 8.96

Given item scFv CD16A (CD16-1) (scFv, also called LSIV21 scFv) scFv: QVQLVQSGAEVKKPGESLKVSCKASGYTFTSYYMHWVRQAPGQGLEWMGIINPSGGSTSYAQKFQGRVTMTRDTSTSTVYMELSSLRSEDTAVYYCARGSAYYYDFADYWGQGTLVTVSSGGSGGSGGSGGSGGSGGSSYVLTQPSSVSVAPGQTATISCGGHNIGSKNVHWYQQRPGQSPVLVIYQDNKRPSGIPERFSGSNSGNTATLTISGTQAMDEADYYCQVWDNYSVLFGGGTKLTVLAAAGSHHHHHH , the value recorded as its pEC50 is 8.02

// sample scFv CD16A (CD16-7) (scFv) scFv: QVQLVQSGAEVKKPGESLKVSCKASGYTFTNYYMHWVRQAPGQGLEWMGVIEPDGGRRTYAQKFQGRVTMTRDTSTSTVYMELSSLRSEDTAVYYCARGSAYYYDFADYWGQGTLVTVSSGGSGGSGGSGGSGGSGGSEIVLTQSPATLSLSPGERATLSCRGHQGVSGDVHWYQQKPGQAPRLLIYQANKRASGIPARFSGSGSGTEFTLTISSLEPEDFAVYYCQQWDNYSVTFGQGTKVEIKAAAGSHHHHHH , its pEC50 was 8.77
